Target: HIF2α PAS-B domain (236-350, biotinylated on the N-terminus) (Homo sapiens (Human), UniProt Q99814)
Sequence (Q99814 236-350): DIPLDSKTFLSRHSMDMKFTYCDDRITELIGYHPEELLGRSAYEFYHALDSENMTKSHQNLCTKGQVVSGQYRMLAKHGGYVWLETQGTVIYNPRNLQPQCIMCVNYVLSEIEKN
Experiment: biochemical
pIC50: −log10 of the molar value.
Provide the reported pIC50 of each item.

Query block: Can you share its pIC50? I mean this molecule: FC(F)OC1=CC(C(F)(F)F)=CN2C[C@]3(CCOc4cc(C(F)(F)F)ccc43)N=C12
Result block: < 5.00

Query block: If you can, please state the reported pIC50 value of Fc1c(Br)ccc2c1CC[C@@]21CN2C=C(C(F)(F)F)C=C(OC(F)F)C2=N1 .
Result block: ≥ 8.52

Query block: Quick check: pIC50 of FC(F)OC1=CC(C(F)(F)F)=CN2CC3(CCCc4c(Br)cccc43)N=C12 (racemic) ?
Result block: ≥ 8.00

* * *

Can you tell me pIC50 for the items I'm about to list?
Tested on: HIF2α-dependent transcription in 786-O-HRE-Luc cells
Assay: In vitro cellular hypoxia response element (HRE) reporter gene assay (RGA) for HIF2α
Format: cell-based, human
Conditions: Homo sapiens, 24 hours incubation
Description: Stock solutions of compounds were prepared at a concentration of 10 mM in DMSO and stored at 4° C. […] The ability of compounds to inhibit HIF2α- and HIF1α-dependent transcription was assessed in 786-O-HRE-Luc and RCC4-HRE-Luc cells, respectively. The putative unselective inhibition of firefly luciferase activity or expression was assessed in 786-O-UB6-Luc and RCC4-UB6-Luc cells, respectively. […]
pIC50 is a log-scale quantity: -log10 of the concentration expressed in molar.

Query block: Param item = Fc1ccc2c(c1F)OC[C@H](F)[C@@]21CN2C=C(C(F)(F)F)C=C(OC(F)F)C2=N1 ; retrieve measured pIC50.
Result block: 6.92

Query block: If you can, please state the reported pIC50 value of Fc1c(Br)ccc2c1[C@@H](F)[C@H](F)C[C@@]21CN2C=C(C(F)(F)F)C=C(OC(F)F)C2=N1 .
Result block: 7.57

Query block: Bench note: what pIC50 did COc1nccc2c1C(F)(F)CC[C@@]21CN2C=C(C(F)(F)F)C=C(OC(F)F)C2=N1 show?
Result block: 5.84

Query block: pIC50 lookup needed for Fc1cccc2c1OCC[C@@]21CN2C=C(C(F)(F)F)C=C(OC(F)F)C2=N1 , thanks.
Result block: 6.16

Query block: For the compound shown here, FC(F)OC1=CC(C(F)(F)F)=CN2CC3(CCCc4c(Br)cccc43)N=C12 (racemic) , give the reported pIC50.
Result block: 6.84

* * *

Biological target: HIF2α PAS-B domain (236-350, biotinylated on the N-terminus) (Homo sapiens (Human), UniProt Q99814)
readout.name: IC50

Query block: Quick one: IC50 for FC1=CC(C(F)(F)F)=CN2C[C@@]3(CCCc4cc(C(F)(F)F)ccc43)N=C12 ?
Result block: ≤ 3 nM

Query block: For Fc1cccc2c1CSC[C@@]21CN2C=C(C(F)(F)F)C=C(OC(F)F)C2=N1 , what is its reported IC50?
Result block: ≤ 3 nM

Query block: Request the reported IC50 associated with FC(F)OC1=CC(C(F)(F)F)=CN2C[C@@]3(CCOc4cc(Br)ccc43)N=C12
Result block: ≤ 10 nM

Query block: What value of measured IC50 is listed for Fc1ccc2c(c1F)OCCC[C@@]21CN2C=C(C(F)(F)F)C=C(OC(F)F)C2=N1 ?
Result block: ≤ 4 nM

Query block: What measured IC50 goes with Fc1c(Br)ccc2c1CCC[C@@]21CN2C=C(C(F)(F)F)C=C(Cl)C2=N1 ?
Result block: ≤ 6 nM

Query block: Item under review: FC(F)OC1=CC(C(F)(F)F)=CN2C[C@@]3(CCCc4c(Cl)cccc43)N=C12 . Reported IC50?
Result block: ≤ 4 nM
